study-target: MRPL21 (UniProt Q7Z2W9)
procedure-text: EC50 of free RNA motif oligo competing protein binding to immobilised probe
pEC50: −log10 of the molar value.
result-type: pEC50

{"sequence-input": "CUGUCCU", "study-target": "MRPL21 (UniProt Q7Z2W9)", "obs-value": 6.82}

====

study-target: DAP3 (UniProt P51398)
procedure-text: EC50 of free RNA motif oligo competing protein binding to immobilised probe

{"sequence-input": "UAUUUAU", "study-target": "DAP3 (UniProt P51398)", "EC50 / nM": 51.4}

====

study-target: ATIC (UniProt P31939)
Sequence (P31939 whole entry, looked up): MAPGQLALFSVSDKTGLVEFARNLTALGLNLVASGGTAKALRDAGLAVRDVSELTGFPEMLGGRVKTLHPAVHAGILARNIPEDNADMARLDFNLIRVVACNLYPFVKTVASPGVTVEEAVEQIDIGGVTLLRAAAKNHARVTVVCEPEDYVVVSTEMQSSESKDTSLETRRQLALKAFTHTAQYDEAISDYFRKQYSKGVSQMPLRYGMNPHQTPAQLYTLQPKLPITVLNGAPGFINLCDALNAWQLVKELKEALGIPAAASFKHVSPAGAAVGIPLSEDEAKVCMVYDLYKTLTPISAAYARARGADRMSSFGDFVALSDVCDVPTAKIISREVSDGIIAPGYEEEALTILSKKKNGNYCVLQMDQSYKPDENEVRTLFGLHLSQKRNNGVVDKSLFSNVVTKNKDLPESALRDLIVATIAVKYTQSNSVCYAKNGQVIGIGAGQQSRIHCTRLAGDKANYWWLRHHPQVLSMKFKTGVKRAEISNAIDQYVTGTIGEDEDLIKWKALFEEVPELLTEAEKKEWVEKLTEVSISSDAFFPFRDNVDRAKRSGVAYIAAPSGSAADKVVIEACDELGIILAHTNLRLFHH
procedure-text: Kd (EC50 corrected by depletion factor)
result-type: Kd (µM)

{"sequence-input": "UAUUUAU", "obs-value": 0.523}

====

study-target: ERAL1 (UniProt O75616)
Sequence: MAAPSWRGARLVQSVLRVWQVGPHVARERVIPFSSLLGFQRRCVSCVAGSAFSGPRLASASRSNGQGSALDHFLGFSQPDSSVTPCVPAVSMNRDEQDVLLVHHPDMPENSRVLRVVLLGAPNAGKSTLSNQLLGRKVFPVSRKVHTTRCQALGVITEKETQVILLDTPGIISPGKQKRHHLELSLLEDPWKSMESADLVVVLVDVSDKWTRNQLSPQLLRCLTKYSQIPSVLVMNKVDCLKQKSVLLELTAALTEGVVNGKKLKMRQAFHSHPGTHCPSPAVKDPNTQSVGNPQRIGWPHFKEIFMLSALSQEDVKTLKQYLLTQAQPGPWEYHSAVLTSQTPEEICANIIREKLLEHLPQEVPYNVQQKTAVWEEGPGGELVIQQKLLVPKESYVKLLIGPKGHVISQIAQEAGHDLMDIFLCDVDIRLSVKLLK
procedure-text: Kd (EC50 corrected by depletion factor)

{"sequence-input": "UAUUUAU", "Kd [nM]": 25.5}

====

study-target: C1QBP (UniProt Q07021)
Sequence: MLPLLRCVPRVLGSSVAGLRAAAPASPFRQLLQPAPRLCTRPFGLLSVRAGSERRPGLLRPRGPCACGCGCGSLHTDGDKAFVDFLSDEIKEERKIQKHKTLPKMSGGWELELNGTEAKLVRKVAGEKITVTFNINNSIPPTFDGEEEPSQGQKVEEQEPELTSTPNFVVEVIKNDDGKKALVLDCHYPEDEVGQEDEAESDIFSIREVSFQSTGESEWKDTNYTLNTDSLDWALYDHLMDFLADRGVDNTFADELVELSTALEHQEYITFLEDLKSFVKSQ
procedure-text: EC50 of free RNA motif oligo competing protein binding to immobilised probe
result-type: EC50

{"sequence-input": "AAUAAA", "result-type": "EC50", "obs-value": "1470 nM"}

====

study-target: IGF2BP3 (UniProt O00425)
Sequence (O00425 whole entry): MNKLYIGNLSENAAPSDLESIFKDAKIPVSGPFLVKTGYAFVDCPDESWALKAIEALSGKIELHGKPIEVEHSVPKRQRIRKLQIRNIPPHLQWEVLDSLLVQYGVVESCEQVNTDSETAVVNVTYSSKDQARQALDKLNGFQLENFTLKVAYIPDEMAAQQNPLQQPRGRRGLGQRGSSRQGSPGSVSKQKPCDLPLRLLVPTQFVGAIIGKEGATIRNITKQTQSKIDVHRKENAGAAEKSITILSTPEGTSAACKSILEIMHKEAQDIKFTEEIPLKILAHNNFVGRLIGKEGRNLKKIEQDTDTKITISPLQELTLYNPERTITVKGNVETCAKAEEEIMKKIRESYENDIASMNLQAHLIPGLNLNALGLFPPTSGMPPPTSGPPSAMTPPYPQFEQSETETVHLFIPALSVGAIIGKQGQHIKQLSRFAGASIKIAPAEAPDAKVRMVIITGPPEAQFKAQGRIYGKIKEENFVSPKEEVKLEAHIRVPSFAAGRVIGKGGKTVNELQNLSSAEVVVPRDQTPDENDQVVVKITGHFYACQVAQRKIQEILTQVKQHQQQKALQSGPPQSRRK
procedure-text: EC50 of free RNA motif oligo competing protein binding to immobilised probe
pEC50: −log10 of the molar value.

{"sequence-input": "CUGUCCU", "pEC50": 5.42}

====

study-target: SYNCRIP (UniProt O60506)
Sequence: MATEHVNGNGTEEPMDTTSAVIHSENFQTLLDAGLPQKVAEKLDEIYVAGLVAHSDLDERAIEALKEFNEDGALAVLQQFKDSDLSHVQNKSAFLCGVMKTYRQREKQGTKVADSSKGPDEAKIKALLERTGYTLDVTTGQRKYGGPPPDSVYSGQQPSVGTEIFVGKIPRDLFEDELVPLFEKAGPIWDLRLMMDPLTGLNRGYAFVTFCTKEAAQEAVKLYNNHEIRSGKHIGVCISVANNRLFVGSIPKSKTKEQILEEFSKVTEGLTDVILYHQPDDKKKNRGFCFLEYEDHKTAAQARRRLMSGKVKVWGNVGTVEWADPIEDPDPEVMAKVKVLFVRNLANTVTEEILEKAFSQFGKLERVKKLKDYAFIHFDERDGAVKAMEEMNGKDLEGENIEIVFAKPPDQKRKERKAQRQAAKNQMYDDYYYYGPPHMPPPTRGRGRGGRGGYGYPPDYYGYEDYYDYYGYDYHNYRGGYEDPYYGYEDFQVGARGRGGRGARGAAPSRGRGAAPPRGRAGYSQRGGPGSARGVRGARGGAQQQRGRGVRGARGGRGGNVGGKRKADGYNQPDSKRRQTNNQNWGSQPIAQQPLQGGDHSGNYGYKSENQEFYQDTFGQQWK
procedure-text: EC50 of free RNA motif oligo competing protein binding to immobilised probe
pEC50: −log10 of the molar value.

{"sequence-input": "AAUAAA", "study-target": "SYNCRIP (UniProt O60506)", "pEC50": 5.73}

====

study-target: RBM47 (UniProt A0AV96)
Sequence: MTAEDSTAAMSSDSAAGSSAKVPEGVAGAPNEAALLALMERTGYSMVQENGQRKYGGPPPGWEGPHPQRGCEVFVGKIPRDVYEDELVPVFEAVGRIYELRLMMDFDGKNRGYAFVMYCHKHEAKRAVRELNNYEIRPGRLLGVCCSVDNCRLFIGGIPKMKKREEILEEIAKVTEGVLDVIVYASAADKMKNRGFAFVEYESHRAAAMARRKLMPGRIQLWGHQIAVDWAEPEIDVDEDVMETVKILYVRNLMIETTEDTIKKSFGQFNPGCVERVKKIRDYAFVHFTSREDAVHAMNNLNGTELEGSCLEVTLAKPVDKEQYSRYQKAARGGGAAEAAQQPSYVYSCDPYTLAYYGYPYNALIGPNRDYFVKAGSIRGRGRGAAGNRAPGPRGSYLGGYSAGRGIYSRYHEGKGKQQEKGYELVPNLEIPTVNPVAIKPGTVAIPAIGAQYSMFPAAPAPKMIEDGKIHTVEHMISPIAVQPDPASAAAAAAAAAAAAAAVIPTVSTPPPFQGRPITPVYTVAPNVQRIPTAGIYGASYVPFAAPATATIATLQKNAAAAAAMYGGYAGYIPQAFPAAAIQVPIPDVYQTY
procedure-text: EC50 of free RNA motif oligo competing protein binding to immobilised probe
pEC50: −log10 of the molar value.

{"sequence-input": "AAUAAA", "pEC50": 5.43}

====

study-target: MRPL19 (UniProt P49406)
procedure-text: Kd (EC50 corrected by depletion factor)

{"sequence-input": "CUGUCCU", "result-unit": "µM", "Kd": 0.0541}

====

study-target: SF3B5 (UniProt Q9BWJ5)
Sequence: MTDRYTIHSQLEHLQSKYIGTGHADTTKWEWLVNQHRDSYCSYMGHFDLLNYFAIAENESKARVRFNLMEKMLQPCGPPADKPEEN
procedure-text: EC50 of free RNA motif oligo competing protein binding to immobilised probe
pEC50: −log10 of the molar value.
result-type: pEC50

{"sequence-input": "AAUAAA", "result-type": "pEC50", "obs-value": 5.92}

====

Listed here: items and their measured pEC50.
study-target: RBMS3 (UniProt Q6XE24)
Sequence: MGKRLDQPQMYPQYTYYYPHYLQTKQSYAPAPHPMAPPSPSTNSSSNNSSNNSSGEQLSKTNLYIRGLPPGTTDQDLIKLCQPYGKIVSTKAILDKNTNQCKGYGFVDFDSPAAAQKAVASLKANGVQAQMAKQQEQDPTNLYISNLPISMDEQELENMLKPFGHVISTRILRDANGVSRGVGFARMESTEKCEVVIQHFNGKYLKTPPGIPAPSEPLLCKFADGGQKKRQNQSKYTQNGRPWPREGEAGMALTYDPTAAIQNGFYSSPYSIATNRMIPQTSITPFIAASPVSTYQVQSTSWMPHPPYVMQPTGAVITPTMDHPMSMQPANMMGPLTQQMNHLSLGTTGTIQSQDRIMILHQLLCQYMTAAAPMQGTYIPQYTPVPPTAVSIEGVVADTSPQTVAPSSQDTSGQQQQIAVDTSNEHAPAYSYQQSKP
procedure-text: EC50 of free RNA motif oligo competing protein binding to immobilised probe
pEC50: −log10 of the molar value.

{"sequence-input": "UAUUUAU", "pEC50": 6.56}
{"sequence-input": "AAUAAA", "pEC50": 5.93}

====

study-target: MRPS26 (UniProt Q9BYN8)
procedure-text: EC50 of free RNA motif oligo competing protein binding to immobilised probe
pEC50: −log10 of the molar value.

{"sequence-input": "UAUUUAU", "pEC50": 7.46}

====

study-target: IFIT5 (UniProt Q13325)
Sequence: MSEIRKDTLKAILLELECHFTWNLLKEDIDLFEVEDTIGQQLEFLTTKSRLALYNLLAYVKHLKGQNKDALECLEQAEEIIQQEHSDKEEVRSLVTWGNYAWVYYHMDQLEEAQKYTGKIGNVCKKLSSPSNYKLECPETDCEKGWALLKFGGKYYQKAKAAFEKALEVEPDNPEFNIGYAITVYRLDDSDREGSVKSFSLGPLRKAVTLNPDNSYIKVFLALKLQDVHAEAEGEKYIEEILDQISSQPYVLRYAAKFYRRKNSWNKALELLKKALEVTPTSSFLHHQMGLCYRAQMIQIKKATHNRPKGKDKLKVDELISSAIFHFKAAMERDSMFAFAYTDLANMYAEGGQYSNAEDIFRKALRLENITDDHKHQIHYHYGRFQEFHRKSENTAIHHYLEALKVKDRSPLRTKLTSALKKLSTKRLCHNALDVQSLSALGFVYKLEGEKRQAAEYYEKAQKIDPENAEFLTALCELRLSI
procedure-text: Kd (EC50 corrected by depletion factor)
pKd: −log10 of the molar value.

{"sequence-input": "AAUAAA", "study-target": "IFIT5 (UniProt Q13325)", "pKd": 6.44}
